Tested on: Veronica persica
Experiment: Post-emergence herbicidal action against harmful plants
Format: in vivo
Settings: 504 h, dosage 80 g/ha, visual rating after about 3 weeks (Table D), read-out: Herbicidal action against VERPE
measured_endpoint: pest or weed control at 80 g/ha (%)
Only the number, expressed in %, is required.

See these solved cases before continuing.
[
  {
    "compound": "CCN(C)C(=O)COc1c(S(=O)(=O)CC)ccc(C(=O)C2=C(O)CCCC2=O)c1Cl [Compound S6, reference compound]",
    "result_unit": "%",
    "pest or weed control at 80 g/ha": 100
  },
  {
    "compound": "CCS(=O)(=O)c1ccc(C(=O)C2=C(O)CCCC2=O)c(C(F)(F)F)c1OCC(=O)N(C)C",
    "result_unit": "%",
    "pest or weed control at 80 g/ha": 100
  }
]

I looked up CN(C)C(=O)COc1c(Cl)ccc(C(=O)C2=C(O)CCCC2=O)c1Cl [Compound S1, reference compound] and its pest or weed control at 80 g/ha for Veronica persica was 70

I looked up CCS(=O)(=O)c1ccc(C(=O)C2=C(O)CCCC2=O)c(Cl)c1OCC(=O)N(C)C [Compound S5, reference compound] and its pest or weed control at 80 g/ha for Veronica persica was 100

I looked up CCN(C)C(=O)COc1c(S(C)(=O)=O)ccc(C(=O)C2=C(O)CCCC2=O)c1Cl [Compound S7, reference compound] and its pest or weed control at 80 g/ha for Veronica persica was 100

I looked up `CN(C)C(=O)COc1c(S(C)(=O)=O)ccc(C(=O)C2=C(O)CCCC2=O)c1C(F)(F)F` and its pest or weed control at 80 g/ha for Veronica persica was 100

I looked up CCN(CC)C(=O)COc1c(S(C)(=O)=O)ccc(C(=O)C2=C(O)CCCC2=O)c1Cl [Compound S2, reference compound] and its pest or weed control at 80 g/ha for Veronica persica was 90

###

Tested on: Stellaria media
Assay: Post-emergence herbicidal action against harmful plants
Type: in vivo
Conditions: 504 h, dosage 20 g/ha, visual rating after about 3 weeks (Table F), read-out: Herbicidal action against STEME
measured_endpoint: pest or weed control at 20 g/ha (%)
Only the number, expressed in %, is required.

[
  {
    "molecule": "CCS(=O)(=O)c1ccc(C(=O)C2=C(O)CCCC2=O)c(Cl)c1OC(C)C(=O)NC (stereo not shown) [Compound S11, reference compound]",
    "meas_value": 80
  }
]

Given item CCS(=O)(=O)c1ccc(C(=O)C2=C(SCC(=O)OC)CCCC2=O)c(Cl)c1OCC(=O)N(C)C [Compound S9, reference compound] , the value recorded as its pest or weed control at 20 g/ha is 70

Given item `CCS(=O)(=O)c1ccc(C(=O)C2=C(SCC(=O)OC)CCCC2=O)c(C(F)(F)F)c1OCC(=O)N(C)C` , the value recorded as its pest or weed control at 20 g/ha is 90

Given item CCS(=O)(=O)c1ccc(C(=O)C2=C(O)CCCC2=O)c(C(F)(F)F)c1OC(C)C(=O)NC (stereo not shown) , the value recorded as its pest or weed control at 20 g/ha is 90

###

Test system: Stellaria media
Assay: Pre-emergence herbicidal action against harmful plants
Assay type: in vivo
Settings: 504 h, dosage 320 g/ha, visual assessment after 3 weeks (Table A), read-out: Herbicidal action against STEME
Use 90% as the dividing line for pest or weed control at 320 g/ha, with the line itself on the label 1 side and lower values as label 0.

Examples from the recorded data:
[
  {
    "molecule": "CCN(CC)C(=O)COc1c(S(C)(=O)=O)ccc(C(=O)C2=C(O)CCCC2=O)c1Cl [Compound S2, reference compound]",
    "system_name": "Stellaria media",
    "discrete_label": "label 0"
  },
  {
    "molecule": "CCN(CC)C(=O)COc1c(S(=O)(=O)CC)ccc(C(=O)C2=C(O)CCCC2=O)c1Cl [Compound S3, reference compound]",
    "system_name": "Stellaria media",
    "discrete_label": "label 0"
  },
  {
    "molecule": "CCN(CC)C(=O)COc1c(S(=O)(=O)CC)ccc(C(=O)C2=C(O)CCCC2=O)c1C(F)(F)F",
    "system_name": "Stellaria media",
    "discrete_label": "label 1"
  },
  {
    "molecule": "CCN(C)C(=O)COc1c(S(=O)(=O)CC)ccc(C(=O)C2=C(O)CCCC2=O)c1C(F)(F)F",
    "system_name": "Stellaria media",
    "discrete_label": "label 1"
  },
  {
    "molecule": "CN(C)C(=O)COc1c(Cl)ccc(C(=O)C2=C(O)CCCC2=O)c1Cl [Compound S1, reference compound]",
    "system_name": "Stellaria media",
    "discrete_label": "label 0"
  },
  {
    "molecule": "CCN(C)C(=O)COc1c(S(C)(=O)=O)ccc(C(=O)C2=C(O)CCCC2=O)c1C(F)(F)F",
    "system_name": "Stellaria media",
    "discrete_label": "label 1"
  },
  {
    "molecule": "CCN(C)C(=O)COc1c(S(=O)(=O)CC)ccc(C(=O)C2=C(O)CCCC2=O)c1Cl [Compound S6, reference compound]",
    "system_name": "Stellaria media",
    "discrete_label": "label 0"
  }
]

In the following, a different molecule is considered.
Does `CCS(=O)(=O)c1ccc(C(=O)C2=C(O)CCCC2=O)c(C(F)(F)F)c1OCC(=O)N(C)OC` have a reported pest or weed control at 320 g/ha of at least 90%?
label 1

###

Test system: Abutilon theophrasti
Assay: Pre-emergence herbicidal action against harmful plants
Type: in vivo
Conditions: Abutilon theophrasti, 504 h, dosage 320 g/ha, visual assessment after 3 weeks (Table A), read-out: Herbicidal action against ABUTH
measured_endpoint: pest or weed control at 320 g/ha
Record the result as number plus unit.

[
  {
    "molecule": "CN(C)C(=O)COc1c(S(C)(=O)=O)ccc(C(=O)C2=C(O)CCCC2=O)c1C(F)(F)F [Compound E4]",
    "system_name": "Abutilon theophrasti",
    "measured_endpoint": "pest or weed control at 320 g/ha",
    "meas_value": "100%"
  }
]

I looked up CCN(C)C(=O)COc1c(S(C)(=O)=O)ccc(C(=O)C2=C(O)CCCC2=O)c1Cl [Compound S7, reference compound] and its pest or weed control at 320 g/ha for Abutilon theophrasti was 80%

I looked up CN(C)C(=O)COc1c(Cl)ccc(C(=O)C2=C(O)CCCC2=O)c1Cl [Compound S1, reference compound] and its pest or weed control at 320 g/ha for Abutilon theophrasti was 90%

I looked up CCS(=O)(=O)c1ccc(C(=O)C2=C(O)CCCC2=O)c(Cl)c1OCC(=O)N(C)C [Compound S5, reference compound] and its pest or weed control at 320 g/ha for Abutilon theophrasti was 90%

###

This listing pairs molecules with measured pest or weed control at 80 g/ha.
Tested on: Veronica persica
Assay: Post-emergence herbicidal action against harmful plants
Assay type: in vivo
Conditions: 504 h, dosage 80 g/ha, visual rating after about 3 weeks (Table D), read-out: Herbicidal action against VERPE
Only the number, expressed in %, is required.

See these solved cases before continuing.
[
  {
    "molecule": "CCN(C)C(=O)COc1c(S(=O)(=O)CC)ccc(C(=O)C2=C(O)CCCC2=O)c1C(F)(F)F [Compound E6]",
    "system_name": "Veronica persica",
    "meas_value": 100
  },
  {
    "molecule": "CN(C)C(=O)COc1c(S(C)(=O)=O)ccc(C(=O)C2=C(O)CCCC2=O)c1Cl [Compound S4, reference compound]",
    "system_name": "Veronica persica",
    "meas_value": 90
  },
  {
    "molecule": "CCN(CC)C(=O)COc1c(S(=O)(=O)CC)ccc(C(=O)C2=C(O)CCCC2=O)c1C(F)(F)F [Compound E3]",
    "system_name": "Veronica persica",
    "meas_value": 100
  },
  {
    "molecule": "CN(C)C(=O)COc1c(Cl)ccc(C(=O)C2=C(O)CCCC2=O)c1C(F)(F)F [Compound E1]",
    "system_name": "Veronica persica",
    "meas_value": 90
  },
  {
    "molecule": "CCN(CC)C(=O)COc1c(S(=O)(=O)CC)ccc(C(=O)C2=C(O)CCCC2=O)c1Cl [Compound S3, reference compound]",
    "system_name": "Veronica persica",
    "meas_value": 90
  }
]

Given item CCN(CC)C(=O)COc1c(S(C)(=O)=O)ccc(C(=O)C2=C(O)CCCC2=O)c1C(F)(F)F [Compound E2] , the value recorded as its pest or weed control at 80 g/ha is 100

Given item CCN(C)C(=O)COc1c(S(C)(=O)=O)ccc(C(=O)C2=C(O)CCCC2=O)c1C(F)(F)F [Compound E7] , the value recorded as its pest or weed control at 80 g/ha is 100
